assayed_system: purified human Factor XIa (Homo sapiens, UniProt P03951)
Sequence (P03951 388-625 limits assumed): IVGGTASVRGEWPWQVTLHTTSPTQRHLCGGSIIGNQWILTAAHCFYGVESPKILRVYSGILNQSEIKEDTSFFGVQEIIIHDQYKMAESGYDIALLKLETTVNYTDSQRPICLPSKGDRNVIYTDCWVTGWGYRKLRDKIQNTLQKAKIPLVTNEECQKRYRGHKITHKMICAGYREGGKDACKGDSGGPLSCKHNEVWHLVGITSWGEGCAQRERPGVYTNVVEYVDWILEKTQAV
Sequence (P03951 19-387 partner limits assumed): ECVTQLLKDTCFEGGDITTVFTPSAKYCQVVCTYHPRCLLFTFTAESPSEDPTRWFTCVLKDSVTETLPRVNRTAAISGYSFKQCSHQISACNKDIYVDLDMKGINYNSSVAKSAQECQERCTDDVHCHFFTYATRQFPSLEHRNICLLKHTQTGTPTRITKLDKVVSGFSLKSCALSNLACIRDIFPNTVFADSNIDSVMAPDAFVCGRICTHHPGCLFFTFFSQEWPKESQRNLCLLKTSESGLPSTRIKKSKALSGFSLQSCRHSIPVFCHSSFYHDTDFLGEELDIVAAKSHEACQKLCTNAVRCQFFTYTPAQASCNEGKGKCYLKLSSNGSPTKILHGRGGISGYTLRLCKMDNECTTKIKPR
Counter-ions that a name gives are not always drawn.
readout_kind: pKi
Please keep in mind that pKi is minus log10 of the molar concentration; only the number is needed.

C[C@@H]1CCC[C@H](N2CCC(c3cc(Cl)ccc3-n3cc(Cl)nn3)=CC2=O)c2cccc(c2)-c2c(cnn2C)NC1=O [Example 48]    9.89

Notebook entry, purified human Factor XIa (Homo sapiens, UniProt P03951) assay: pKi of C[C@@H]1CCC[C@H](N2CCC(c3cc(Cl)ccc3C#N)=CC2=O)c2cc(ccn2)-c2c(cnn2C)NC1=O [Example 57] = ? 8.40

Form field: pKi recorded for C[C@H]1C(=O)Nc2cnn(C)c2-c2ccnc(c2)[C@@H](n2ccc(-c3c(C(F)(F)F)ccc(Cl)c3F)cc2=O)CCC1F (some centres unmarked) [Example 28, trifluoroacetate] with purified human Factor XIa (Homo sapiens, UniProt P03951) (enter value) 8.52

Give purified human Factor XIa (Homo sapiens, UniProt P03951) pKi for C[C@@H]1CCC[C@H](N2CCC(c3cc(Cl)ccc3-n3ccnn3)=CC2=O)c2cc(ccn2)-c2c(cnn2C2CCC2)NC1=O [Example 54] 8.15

State its pKi on purified human Factor XIa (Homo sapiens, UniProt P03951): C[C@@H]1CCC[C@H](n2ccc(-c3c(OC(F)F)ccc(Cl)c3F)cc2=O)c2cc(ccn2)-c2c(cnn2C)NC1=O [Example 27, trifluoroacetate] 8.31

* * *

assayed_system: purified human plasma kallikrein (Homo sapiens, UniProt P03952)
Construct: Plasma prekallikrein is a zymogen of a trypsin-like serine protease; purchased Enzyme Research Laboratories
Sequence (P03952 391-638 limits assumed): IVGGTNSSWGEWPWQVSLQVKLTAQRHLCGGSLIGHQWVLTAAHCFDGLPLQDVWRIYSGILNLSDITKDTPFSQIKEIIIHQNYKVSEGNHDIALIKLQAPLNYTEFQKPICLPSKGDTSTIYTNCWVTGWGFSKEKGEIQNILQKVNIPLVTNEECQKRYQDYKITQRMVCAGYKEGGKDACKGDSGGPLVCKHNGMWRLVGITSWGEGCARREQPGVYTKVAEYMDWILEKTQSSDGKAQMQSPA
Sequence (P03952 20-390 partner limits assumed): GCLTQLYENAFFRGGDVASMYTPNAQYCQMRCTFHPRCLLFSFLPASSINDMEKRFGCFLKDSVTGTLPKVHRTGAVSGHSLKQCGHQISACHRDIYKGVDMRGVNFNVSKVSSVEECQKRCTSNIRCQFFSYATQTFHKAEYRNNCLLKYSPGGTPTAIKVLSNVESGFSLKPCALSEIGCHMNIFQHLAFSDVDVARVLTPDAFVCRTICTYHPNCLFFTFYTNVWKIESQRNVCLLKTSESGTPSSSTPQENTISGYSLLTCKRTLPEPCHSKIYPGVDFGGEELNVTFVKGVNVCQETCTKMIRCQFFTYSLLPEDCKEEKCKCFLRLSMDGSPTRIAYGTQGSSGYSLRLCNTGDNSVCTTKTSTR
run_description: Plasma kallikrein inhibition assay, chromogenic substrate S-2302 (Ki)
Type: biochemical
readout_kind: pKi
Notebook: values listed as pKi are -log10 of the concentration (mol/L).

[2H]C([2H])([2H])n1ncc2c1-c1cc(ccn1)[C@@H](n1ncc(-c3cc(Cl)ccc3-n3cc(C(F)(F)F)nn3)cc1=O)CCC[C@@H](C)C(=O)N2    7.28
[2H]C([2H])([2H])n1ncc2c1-c1ccnc(c1)[C@@H](N1CCC(c3cc(Cl)ccc3-n3cc(C(F)(F)F)nn3)=CC1=O)CCC[C@@H](C)C(=O)N2    8.15
C[C@@H]1CCC[C@H](N2CCC(c3cc(Cl)ccc3-n3cc(Cl)nn3)=CC2=O)c2cc(ccn2)-c2c(cnn2CCO)NC1=O    7.49
C[C@@H]1CCC[C@H](N2CCC(c3c(C(F)(F)F)ccc(Cl)c3F)=CC2=O)c2cc(ccn2)-c2c(cnn2C)NC1=O    8.15

Under purified human plasma kallikrein (Homo sapiens, UniProt P03952): pKi value of "CC(=O)c1ccc(Cl)c(F)c1C1=CC(=O)N([C@H]2CCC[C@@H](C)C(=O)Nc3cnn(C)c3-c3ccnc2c3)CC1" ? 7.34

Enter reported pKi observed with purified human plasma kallikrein (Homo sapiens, UniProt P03952) for "C[C@@H]1CCC[C@H](N2CCC(c3c(-c4cnn(C(F)F)c4)ccc(Cl)c3F)=CC2=O)c2cc(ccn2)-c2c(cnn2C)NC1=O" 7.47

Recall the recorded pKi for "C[C@@H]1CCC[C@H](N2CCC(c3c(C(C)(F)F)ccc(Cl)c3F)=CC2=O)c2cc(ccn2)-c2c(cnn2C)NC1=O" with purified human plasma kallikrein (Homo sapiens, UniProt P03952) and state it. 7.30

// map "C[C@@H]1CCC[C@H](N2CCC(c3cc(Cl)ccc3-n3cc(Cl)nn3)=CC2=O)c2cc(ccn2)-c2[nH]ncc2NC1=O" to recorded pKi (system: purified human plasma kallikrein (Homo sapiens, UniProt P03952)) 7.34
